tested on: A549/ATCC NSCLC; assay: NCI-60 one-dose screen, 48 h (100 = growth as untreated, 0 = no growth, -100 = all killed); conditions: 10 µM unless noted
About 83,000 compounds went through this panel and 20% of them were active in at least one assay; those are over-represented in the sample as a whole.
Readout name: growth (%)
Kindly provide the numeric value in % only, without the unit symbol.

Chemical smiles | Uom | growth
O=C1c2c(c3c4cccnc4[nH]c3c3ccc4ccccc4c23)C(=O)N1CCN1CCOCC1 | % | 55.4
NS(=O)(=O)c1ccc(Nc2nc(N/N=C/c3ccc([N+](=O)[O-])cc3)nc(Nc3ccccc3)n2)cc1 | % | 96.9
COc1ccc(-c2nc3cc(Cl)c(Cl)cc3n2CC(=O)N=Nc2c(O)[nH]c3ccccc23)cc1 | % | 27.8

Turning to the following compound.
Please give the measured growth for this compound: `COc1ccc(NC(=O)Cn2cc(CN3C(=O)c4ccc([N+](=O)[O-])cc4C3=O)nn2)cc1`
102
